B1: tRNA (parent)
chain: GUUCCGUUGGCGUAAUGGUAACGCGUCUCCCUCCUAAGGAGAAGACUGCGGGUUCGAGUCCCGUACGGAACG

variants of: B1; assay: yeast fitness relative to wild type (ratio to wild type); higher = fitter; tRNA-Arg(CCU), competitive growth, 37 C, YPD
This sample holds only a part of the variants without activity.
OBSERVABLE: yeast fitness
Just the number.

Prompt: Quick one: yeast fitness of "GUUCCGGUGGCGUAAUGGUAACGCGUCUCCCUCCUAAGGAGAGGACUGCGGGUUCGAGUCCCGUACGGAACG" ?
Response: 0.806

Prompt: Request: "GUUCCGUUGGCGUAAUGCUAACGCGUCUGCCUCCUCAGGAGAACACUGCAGGUUCGAGUCCCGUACGGAACG"
Response: 0.526

Prompt: Request: "GUUCCGUUGGCGUAAUGGUAACGCGUCUCCCUCCUAAGGAGAAGACUAUGGGUUCGAGUCCCGUGCGGAACG"
Response: 0.743

Prompt: Request: "GUUCCGUUGGCGUAAUGGUAACGGGUCUCCCUCGUAAGGAGAAGACUGCGGGAUCGAGUCCCGUACGGAACG"
Response: 0.552

Prompt: Request: "GUUCCGUUGGCGUUAUGGUAGCGCGUCUCCCUCCUAAGGAGAAGACUGCGGGUUCGAGUCCCGUACGGAACG"
Response: 0.584

Prompt: Request: "GUUCCGUUGGCGUAAUGGUAACGCGUCUCCCUCCUAAGGAGAAGACUGCGGGUUGGAGUCCCGUACGGCACG"
Response: 0.593

Prompt: Request: "GUUCCGUUGCCGUAAUGGUAACGCGACUCCCUUCUAAGGAGAAGACUGCGGGCUCGAGUCCCGUACGGAACG"
Response: 0.576

Prompt: Request: "GUUCCGUUGGCGUAAUGGUAUCGCGUCUCCGACCUAAGGAGAAGACUGCGGGUUCGAGUCCCGUACGGAACG"
Response: 0.585

Prompt: Request: "GUUCGGUUGGCGUAAUGGUUACGCGUCUCCCUCCUAAGGAGAAGACUGCGCGUUCGAGUCGCGUUCGGACCG"
Response: 0.565

Prompt: Request: "GUUCCGUUGGCGUAUUGGUAACGCGUCCCCCUCCUAAGGAGAAGACUGCGGGUUCGAGUCCCGUACGGAACG"
Response: 0.772

Prompt: Request: "GUUCUGUUGGCGUAAUGGUAACGCGUCUCCCUCCUAAGGAGAAGACUGCGGGUUCGAGUCCCGUUCAGAACG"
Response: 0.921

Prompt: Request: "GUUCCGUUGGCGUAAUGGUAACGCGUCUCCCUCCUAAGGAGAAGACUGCGGGUUCGACUCCCGUAAGGAACG"
Response: 0.717

Prompt: Request: "GUUCCGUUGGCGUAAUGGUAACGUGUCUCCCUCCUAAGGAGAAGACUGCGGGUUCGAGCCCCGUACGGCACG"
Response: 0.618

Prompt: Request: "GUUCCGUUGGCGUAAUGGUAACGCGUCUCCCUCCUAAGGAGAAGACUGCGGGUGCGGGUCCCGUACGGAACG"
Response: 0.615

Prompt: Request: "GUUCCGUUCGCGUAAUGGUAACGCGUCUCGCUCCUUAGGAGAAGAAUGCGGGUUCGAGUCCCGUACGGAACG"
Response: 0.532

Prompt: Request: "GUUCCGUUGGCGUAAUGGUAACGCGUCUCCCUCCUAAGGAGAAGUCUGCAGGUUCGAGUCCCGUACGGAACG"
Response: 1.01

Prompt: Request: "GUUCCGUUGGCGUAAGGGUAAGGCGUCUCCCCCCUAAGGAGAAGACUGCGGGUUCGAGUCCCGUACGGAACG"
Response: 0.767

Prompt: Request: "GUUCCGUUGGCGUAAUGGUAACGCGUCUCCCUCCUAAGGAGAGGACUGCGGGUUCGAUUCCCGUACGGAACG"
Response: 0.707

Prompt: Request: "GUUCCGUUGGCGUAAUGGUAACGCGUCUCCCUCCUAAGGAGAUGACUACGGGUUCGAGUCCCGUACGGAACG"
Response: 1.01

Prompt: Request: "GUUCCGUUGGCGUCGUGGUAACGCGUCUCCCUCCUAAGGAGAAGACUGCGGGUUCGAGUCCCGUACGGAACG"
Response: 0.675

Prompt: Request: "GUUCGGUUCGCGUAAUGGUUGCGGGUGUCCCUCCUAAGGAGAAGACUGCGGGUUCGAGUCCCGUACGGAACG"
Response: 0.577

Prompt: Request: "GUUCCGUUGGCGUAAUGGUUACGCGUCUCCCUCCUAAGGAGAAGAUUGCGGGUUGGAGUCCCGUACGGAACG"
Response: 0.539

Prompt: Request: "GUUCCGUUGGCGUAAUGGUAACGCGUCUUCCUCCUAAGGAGAAGAUUGCGGGUUCGAGUCCCGUACGGAACG"
Response: 0.929

Prompt: Request: "GUUCCGUUGGCGUAAUGGUCACGCGUCUCCCUCCUAAGGAGAAGACUGCGGGUUCGGGUCCCAUACGGAACG"
Response: 0.558
